Each recorded value in this set is attributed to the supplement of paper PMC8728848.

molecular target: Gal6S(b1-4)GlcNAc; experiment: glycan array binding signal (z-score within array); higher = stronger binding; conditions: glycan notation: IUPAC condensed, linker removed
This is one part of a sample in which the strongest signals are shown more often than they occur.
Category | rule: reported glycan array binding signal (z-score) within range, see bottom (below -0.2), middle (-0.2 to below -0.1), top (-0.1 or more)

- binder: "LgFlo1 (Saccharomyces pastorianus), B3IUA8 (protein) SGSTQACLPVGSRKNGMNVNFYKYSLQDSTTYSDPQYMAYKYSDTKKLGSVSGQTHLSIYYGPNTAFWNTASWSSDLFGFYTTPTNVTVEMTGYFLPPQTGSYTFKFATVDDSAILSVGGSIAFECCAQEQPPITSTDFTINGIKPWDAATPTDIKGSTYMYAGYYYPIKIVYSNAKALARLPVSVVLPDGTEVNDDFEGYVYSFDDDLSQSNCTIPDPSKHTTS"
  category label: "middle"
- binder: "LTL (Lotus tetragonolobus), P19664 (protein) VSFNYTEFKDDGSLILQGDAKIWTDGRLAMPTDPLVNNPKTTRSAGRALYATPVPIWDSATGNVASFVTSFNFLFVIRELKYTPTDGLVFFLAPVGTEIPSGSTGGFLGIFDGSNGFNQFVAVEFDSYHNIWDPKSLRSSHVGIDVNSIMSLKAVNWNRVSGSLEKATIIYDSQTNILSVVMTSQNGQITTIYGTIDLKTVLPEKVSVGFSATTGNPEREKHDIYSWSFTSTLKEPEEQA"
  category label: "top"
- binder: "Adiponectin (Rattus norvegicus), Q8K3R4 (protein) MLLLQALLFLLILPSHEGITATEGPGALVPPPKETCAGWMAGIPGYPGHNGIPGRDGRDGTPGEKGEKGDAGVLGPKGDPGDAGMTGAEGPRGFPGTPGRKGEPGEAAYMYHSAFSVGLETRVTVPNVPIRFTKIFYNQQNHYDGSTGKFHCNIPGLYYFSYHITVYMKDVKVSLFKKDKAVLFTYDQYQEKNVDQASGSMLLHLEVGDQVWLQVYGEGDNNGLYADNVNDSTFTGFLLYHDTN"
  category label: "top"
- binder: "Pp2-A2 (Arabidopsis thaliana), Q07098 (protein) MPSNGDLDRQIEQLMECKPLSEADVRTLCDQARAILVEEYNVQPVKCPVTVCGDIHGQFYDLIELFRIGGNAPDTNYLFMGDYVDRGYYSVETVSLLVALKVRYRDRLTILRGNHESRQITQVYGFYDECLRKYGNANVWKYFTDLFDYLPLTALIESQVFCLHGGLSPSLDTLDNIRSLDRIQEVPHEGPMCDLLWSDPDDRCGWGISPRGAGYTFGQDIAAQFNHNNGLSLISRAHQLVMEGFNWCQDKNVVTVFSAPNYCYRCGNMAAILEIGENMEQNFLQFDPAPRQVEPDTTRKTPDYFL"
  category label: "middle"
- binder: "HPL (Tachypleus tridentatus) (protein) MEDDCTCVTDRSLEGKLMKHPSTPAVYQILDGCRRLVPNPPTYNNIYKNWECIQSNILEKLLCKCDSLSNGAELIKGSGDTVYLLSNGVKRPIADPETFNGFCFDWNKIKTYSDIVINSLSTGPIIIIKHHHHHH"
  category label: "bottom"
- binder: "EUL D1A (Oryza sativa) (protein) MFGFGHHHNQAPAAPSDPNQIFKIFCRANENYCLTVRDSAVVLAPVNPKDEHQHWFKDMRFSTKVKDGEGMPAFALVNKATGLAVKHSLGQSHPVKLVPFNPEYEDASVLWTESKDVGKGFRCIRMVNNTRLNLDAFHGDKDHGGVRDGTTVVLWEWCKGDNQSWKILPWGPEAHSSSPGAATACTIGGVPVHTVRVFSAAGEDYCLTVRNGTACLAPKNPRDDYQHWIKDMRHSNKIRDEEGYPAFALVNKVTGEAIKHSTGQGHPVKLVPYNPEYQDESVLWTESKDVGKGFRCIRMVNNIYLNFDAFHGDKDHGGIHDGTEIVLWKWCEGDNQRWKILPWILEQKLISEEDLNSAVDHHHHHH"
  category label: "bottom"
- binder: "TIM1 (protein) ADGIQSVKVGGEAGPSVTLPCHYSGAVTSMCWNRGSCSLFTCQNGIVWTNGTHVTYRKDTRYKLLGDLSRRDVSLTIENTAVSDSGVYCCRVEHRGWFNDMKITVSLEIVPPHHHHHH"
  category label: "middle"
- binder: "DrGRIFIN (Danio rerio), Q6DGJ1 (protein) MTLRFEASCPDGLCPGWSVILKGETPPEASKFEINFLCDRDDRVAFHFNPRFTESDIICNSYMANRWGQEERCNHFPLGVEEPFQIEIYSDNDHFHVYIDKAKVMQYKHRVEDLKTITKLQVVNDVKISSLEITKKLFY"
  category label: "middle"
- binder: "Cohesin-hMARCO (Homo sapiens) (protein) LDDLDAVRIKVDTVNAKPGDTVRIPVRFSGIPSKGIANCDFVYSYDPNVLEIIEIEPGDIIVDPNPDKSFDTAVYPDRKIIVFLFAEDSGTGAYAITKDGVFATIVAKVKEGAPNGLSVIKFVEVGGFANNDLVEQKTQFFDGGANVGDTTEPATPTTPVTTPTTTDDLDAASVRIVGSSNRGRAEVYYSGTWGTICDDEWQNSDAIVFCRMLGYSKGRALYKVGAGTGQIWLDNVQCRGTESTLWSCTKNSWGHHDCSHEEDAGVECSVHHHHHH"
  category label: "bottom"
